The measured values listed here are drawn from PubChem BioAssay.

EXPERIMENT_DESCRIPTION: mitochondrial membrane potential change in A549 cells, profiling panel, cell-based, JC-1 fluorescence, basal, 24 h, 100 nL (AID 1138);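 further: A549 lung adenocarcinoma cells under basal conditions with no added stimulus; test concentration not given here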
CONDITION_PARAMETERS: higher = more signal

- COMPOUND_SMILES: "CC(C)N1C(=O)[C@@]2(c3ccc([N+](=O)[O-])cc3)CC(=O)N(C3CCCCC3)[C@@H]2c2ccc(CO)cc21"
  z-score: -0.24
- COMPOUND_SMILES: "COCCOC(=O)N1C(=O)[C@@]2(c3cc(C#Cc4ccc(OC)cc4)ccc31)[C@H](C(=O)N1CCN(c3ncccn3)CC1)[C@H]1C(=O)O[C@H](c3ccccc3)[C@H](c3ccccc3)N1[C@@H]2c1ccccc1OCCO"
  z-score: -0.94
- COMPOUND_SMILES: "C=CCOC(=O)[C@@H]1[C@H]2C(=O)O[C@H](c3ccccc3)[C@H](c3ccccc3)N2[C@H](c2ccc(OCCOC(=O)[C@H]3C[C@H]4C(=O)N[C@@H](CCCCNC(C)=O)C(=O)N4[C@H]3c3cccc(OCCO)c3)cc2)[C@@]12C(=O)Nc1ccc(I)cc12"
  z-score: -1.11
- COMPOUND_SMILES: "C=CCOC(=O)[C@H]1[C@@H]2C(=O)O[C@@H](c3ccccc3)[C@@H](c3ccccc3)N2[C@@H](c2ccc(OCCOC(=O)[C@H]3C[C@H]4C(=O)N[C@@H](Cc5ccccc5)C(=O)N4[C@H]3c3ccc(O)cc3)cc2)[C@]12C(=O)Nc1ccc(I)cc12"
  z-score: -0.395
- COMPOUND_SMILES: "COc1ccccc1CN1C(=O)c2ccccc2[C@](Cc2ccccc2I)(C(=O)NC(C)C)[C@@H]1c1ccc(CO)cc1"
  z-score: 1.86

---

EXPERIMENT_DESCRIPTION: binders of probe aFGF10 on microarray, primary screen, stem cell growth factor project, biochemical, small-molecule microarray, fluorescence 635/667 (AID 1071);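 further: score merges 667 nm spot intensity and signal to noise from triplicate slides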
CONDITION_PARAMETERS: higher = more signal
# composite z-score per record follows

- COMPOUND: "COc1cc(CO)cc(I)c1O[C@H]1C=C(C(=O)NCCO)C[C@@H](N(Cc2ccc(F)cc2)C(=O)C2CCCO2)[C@@H]1O (some centres undefined)"
  composite z-score: 0.122
- COMPOUND: "CN(C)C(=O)[C@]1(CCC(=O)OC(C)(C)C)N=C(c2ccc(OCCCO)cc2)O[C@@H]1c1ccccc1"
  composite z-score: 0.776
- COMPOUND: "O=C1NCC(=O)N2[C@@H]1C[C@@H](C(=O)O)[C@H]2c1ccc(O)cc1"
  composite z-score: 0.593
- COMPOUND: "C=CC[C@H](OC(=O)Nc1ccc(OC)cc1)c1ccc(O)c2ccccc12"
  composite z-score: 0.517

---

# z-score per record follows
EXPERIMENT_DESCRIPTION: modulators of HCV replicon luciferase signal, primary screen, HCV replication inhibitor project, Huh7 cells, luciferase reporter (AID 1109);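 further: huh7 hepatoma cells harbouring a luciferase neomycin HCV replicon reporter; luciferase luminescence as measure of HCV replicon replication; test concentration not given here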
CONDITION_PARAMETERS: 48 h, higher = more signal
QUANTITY_KIND: z-score

- MOLECULE: "C[C@H]1C2=C3C(CC[C@H]4C(OCc5ccc(F)cc5C(F)(F)F)OC[C@](C)([C@@H]34)N(C(=O)OC(C)(C)C)C2)C(CO)C1CO (stereo partly drawn)"
  QUANTITY_KIND: "z-score"
  NUMERIC_VALUE: -2.81
- MOLECULE: "[N-]=[N+]=NCc1ccccc1[C@H]1OC(c2ccc(OCCCO)cc2)=N[C@@]1(CCS(=O)(=O)c1ccccc1)C(N)=O"
  QUANTITY_KIND: "z-score"
  NUMERIC_VALUE: -0.281
- MOLECULE: "O=C1NC(=O)C2C1C=CC(C(O)c1cc(C(F)(F)F)cc(C(F)(F)F)c1)N2Nc1ccc(Cl)cc1Cl (stereo not drawn)"
  QUANTITY_KIND: "z-score"
  NUMERIC_VALUE: -0.99
- MOLECULE: "CC(C)N1CC=CC23O[C@@H]4C=CCOC(=O)[C@@H]4[C@H]2C(=O)N(C(C)CO)[C@@H]3C1=O (stereo partly drawn)"
  QUANTITY_KIND: "z-score"
  NUMERIC_VALUE: 0.187
- MOLECULE: "C=C(COC)/C(=C/C[C@@H](OC(=O)c1ccncc1)c1cccc(OCCO)c1)c1cnc2ccccc2c1"
  QUANTITY_KIND: "z-score"
  NUMERIC_VALUE: -3.87
- MOLECULE: "Cc1ccc(F)cc1S(=O)(=O)N[C@@H]1CCN(Cc2ccc(Oc3ccccc3)cc2)C1"
  QUANTITY_KIND: "z-score"
  NUMERIC_VALUE: -3.67
- MOLECULE: "CC(C)c1ccc(NN2C(C(O)c3ccco3)C=CC3C(=O)N(c4ccccc4)C(=O)C32)cc1 (stereo not drawn)"
  QUANTITY_KIND: "z-score"
  NUMERIC_VALUE: 3.21
- MOLECULE: "C=CCN1Cc2ccccc2C[C@@]2(N=C(c3ccc(OCCCO)cc3)O[C@H]2c2ccccc2)C1=O"
  QUANTITY_KIND: "z-score"
  NUMERIC_VALUE: -3.08
